- experimental-target: mouse sEH (Mus musculus, UniProt P34914)
- Construct: made in house; host or cells: baculovirus expression system
- Sequence (P34914 whole entry): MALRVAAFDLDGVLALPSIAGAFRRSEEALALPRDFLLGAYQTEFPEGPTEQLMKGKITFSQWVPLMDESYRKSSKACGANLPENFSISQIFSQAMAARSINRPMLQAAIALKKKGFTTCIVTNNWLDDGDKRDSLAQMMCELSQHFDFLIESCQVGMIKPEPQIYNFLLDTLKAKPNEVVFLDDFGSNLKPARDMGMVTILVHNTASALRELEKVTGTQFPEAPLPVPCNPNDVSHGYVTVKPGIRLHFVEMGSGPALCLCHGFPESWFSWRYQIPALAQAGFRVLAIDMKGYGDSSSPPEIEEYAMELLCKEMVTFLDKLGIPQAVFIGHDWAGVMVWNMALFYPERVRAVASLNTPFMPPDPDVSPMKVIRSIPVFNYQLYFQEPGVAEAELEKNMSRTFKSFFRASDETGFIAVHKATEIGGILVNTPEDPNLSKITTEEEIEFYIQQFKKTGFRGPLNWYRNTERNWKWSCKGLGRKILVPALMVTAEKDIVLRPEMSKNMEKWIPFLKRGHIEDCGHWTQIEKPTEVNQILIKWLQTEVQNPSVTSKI
- assay-text: Inhibition of recombinant mouse sEH, IC50 assay with 4-nitrophenyl-trans-2,3-epoxy-3-phenylpropyl carbonate as substrate
- Format: biochemical
- measurement-conditions: Tables 17a and b; read-out: IC50 (μM) Mouse sEH
measured-attribute: IC50 (µM)

{"molecule": "CCOC(=O)c1ccc(C(OC(=O)CCCNC(=O)NC23CC4CC(CC(C4)C2)C3)c2ccccc2)cc1 (stereo not shown)", "measured-attribute": "IC50", "reported-value": 0.05}
{"molecule": "CCOC(=O)c1ccc(C(C#N)OC(=O)CCCNC(=O)NC23CC4CC(CC(C4)C2)C3)cc1 (stereo not shown)", "measured-attribute": "IC50", "reported-value": 0.07}
{"molecule": "CCCCC(CC)OC(=O)CCCNC(=O)NC12CC3CC(CC(C3)C1)C2 (stereo not shown)", "measured-attribute": "IC50", "reported-value": 0.13}
{"molecule": "O=C(CCCc1ccccc1)NC1CCCCC1", "measured-attribute": "IC50", "reported-value": 0.11}
{"molecule": "CCOC(=O)c1ccc(COCCOCCOCCCCCNC(=O)NC23CC4CC(CC(C4)C2)C3)cc1", "measured-attribute": "IC50", "reported-value": 0.05}

(P) O=C(NCCCCCOCCC(F)(F)F)NC12CC3CC(CC(C3)C1)C2
(Q) CCCCC(CO)NC(=O)NC1CCCCC1 (stereo not shown)
Exam item: Which item exceeds the other in IC50, P or Q ? Please reply using the label of the selected record.
Marked response: Q
(Q: 0.1 µM, P: 0.05 µM)

###

- experimental-target: human sEH (Homo sapiens, UniProt P34913)
- Construct: made in house; host or cells: baculovirus expression system
- Sequence (P34913 1-555): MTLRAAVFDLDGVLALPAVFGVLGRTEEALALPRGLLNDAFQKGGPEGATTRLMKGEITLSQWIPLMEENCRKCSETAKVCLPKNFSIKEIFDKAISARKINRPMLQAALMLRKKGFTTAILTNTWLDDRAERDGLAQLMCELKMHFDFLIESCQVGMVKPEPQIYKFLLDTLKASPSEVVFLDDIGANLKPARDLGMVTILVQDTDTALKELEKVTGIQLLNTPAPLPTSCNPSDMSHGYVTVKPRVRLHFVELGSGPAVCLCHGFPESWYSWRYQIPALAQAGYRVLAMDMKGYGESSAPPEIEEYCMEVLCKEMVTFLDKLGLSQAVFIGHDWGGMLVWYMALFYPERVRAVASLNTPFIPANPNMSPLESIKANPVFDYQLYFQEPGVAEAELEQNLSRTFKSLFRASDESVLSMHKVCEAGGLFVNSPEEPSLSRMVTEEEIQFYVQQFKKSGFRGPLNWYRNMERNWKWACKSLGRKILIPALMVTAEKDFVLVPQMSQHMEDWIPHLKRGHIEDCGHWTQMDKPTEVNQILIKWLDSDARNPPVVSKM
- assay-text: Inhibition of recombinant human sEH, IC50 assay with 4-nitrophenyl-trans-2,3-epoxy-3-phenylpropyl carbonate as substrate
- Type: biochemical
- measurement-conditions: Table 8; established protocols; read-out: IC50 (μM) Human sEH
measured-attribute: IC50 (µM)

{"molecule": "CCCCCCCCCCCC(=O)NC12CC3CC(CC(C3)C1)C2 [Compound 989]", "experimental-target": "human sEH (Homo sapiens, UniProt P34913)", "IC50, µM": 5}
{"molecule": "CCCCCOC(=O)CCCNC(=O)CC12CC3CC(CC(C3)C1)C2 [Compound 1017]", "experimental-target": "human sEH (Homo sapiens, UniProt P34913)", "IC50, µM": 0.43}
{"molecule": "O=C(CCCCCCOCCOCCOCc1ccccc1)NC12CC3CC(CC(C3)C1)C2 [Compound 959]", "experimental-target": "human sEH (Homo sapiens, UniProt P34913)", "IC50, µM": 0.11}

(A) CCCCCCCCCCNC(=O)CC12CC3CC(CC(C3)C1)C2 [Compound 1018]
(B) CCCCCOC(=O)CCCCC(=O)NC12CC3CC(CC(C3)C1)C2 [Compound 834]
Exam item: Identify the item whose IC50 is the smaller number: A or B Selection: enter the item's label.
Marked response: A
